test: Microsomal stability assay, human liver microsomes; format: in vitro ADME; details: predicted hepatic clearance, human microsomes
measure: CLHEP human (mL/min/kg body weight)
Give bare numbers, in mL/min/kg body weight.

As a guide, the following entries are already answered.
O=C(N[C@@H](Cn1ccnc1)c1ccc(Cl)cc1Cl)c1ccc(-c2nnc(-c3ccc(Cl)c(Cl)c3)o2)cc1 | 7.39
O=C(N[C@@H](Cn1ccnc1)c1ccc(Cl)cc1Cl)c1ccc(-c2nnc(-c3cc(-c4ccccn4)ccc3F)o2)cc1 | 6.85
O=C(N[C@@H](Cn1ccnc1)c1ccc(Cl)cc1Cl)c1ccc(-c2nnc(-c3cccc(-c4ccccn4)c3)o2)cc1 | 8.06

**Q:** Can you look up the measured CLHEP human of `O=C(N[C@@H](Cn1ccnc1)c1ccc(Cl)cc1Cl)c1ccc(-c2nnc(-c3cc(F)cc(-c4ncncc4F)c3)o2)cc1` for me?
**A:** 8.37

---

I'd appreciate it if you could supply CLHEP mouse values for the items below.
test: Microsomal stability assay, mouse liver microsomes; assay type: in vitro ADME; details: male, CD-1, mouse, 1 μM, pH 7.4
One number for each entry, in mL/min/kg body weight.

O=C(N[C@@H](Cn1ccnc1)c1ccc(Cl)cc1Cl)c1ccc(-c2nnc(-c3ccc(Cl)c(Cl)c3)o2)cc1 | 49
O=C(N[C@@H](Cn1ccnc1)c1ccc(Cl)cc1Cl)c1ccc(-c2nnc(-c3cccc(-c4ccccn4)c3)o2)cc1 | 56
CS(=O)(=O)c1ccc(-c2nnc(-c3ccc(C(=O)N[C@@H](Cn4ccnc4)c4ccc(Cl)cc4Cl)cc3)o2)cc1Cl | 34.5

Consider now this further compound.
**Q:** Which CLHEP mouse value is on record for `O=C(N[C@@H](Cn1ccnc1)c1ccc(Cl)cc1Cl)c1ccc(-c2nnc(-c3cc(F)cc(OCC(F)(F)F)c3)o2)cc1` ?
**A:** 43.6

---

Record form. Attribute: CLHEP rat. Fill in for each entry.
experiment: Microsomal stability assay, rat liver microsomes; type: in vitro ADME; conditions: predicted hepatic clearance, rat microsomes
Give bare numbers, in mL/min/kg body weight.

O=C(N[C@@H](Cn1ccnc1)c1ccc(Cl)cc1Cl)c1ccc(-c2nnc(-c3ccc(-c4ccccn4)cc3F)o2)cc1 [Compound 12] | 29.7
O=C(N[C@@H](Cn1ccnc1)c1ccc(Cl)cc1Cl)c1ccc(-c2nnc(-c3ccccc3)o2)cc1 [VNI, reference compound] | 19.2
O=C(N[C@@H](Cn1ccnc1)c1ccc(Cl)cc1Cl)c1ccc(-c2nnc(-c3ccc(OCC(F)(F)F)cc3F)o2)cc1 [Compound 3] | 34
CS(=O)(=O)c1ccc(-c2nnc(-c3ccc(C(=O)N[C@@H](Cn4ccnc4)c4ccc(Cl)cc4Cl)cc3)o2)cc1Cl [Compound 14] | 42

Please give CLHEP rat, item by item, for the list that follows.
1. O=C(N[C@@H](Cn1ccnc1)c1ccc(Cl)cc1Cl)c1ccc(-c2nnc(-c3cc(F)cc(OCC(F)(F)F)c3)o2)cc1 [Compound 4]
2. O=C(N[C@@H](Cn1ccnc1)c1ccc(Cl)cc1Cl)c1ccc(-c2nnc(-c3ccc(Cl)c(Cl)c3)o2)cc1 [Compound 5]
3. O=C(N[C@@H](Cn1ccnc1)c1ccc(Cl)cc1Cl)c1ccc(-c2nnc(-c3cccc(-c4ccccn4)c3)o2)cc1 [Compound 9]

**A:**
1: 29; 2: 35; 3: 35

---

test: Microsomal stability assay, human liver microsomes; assay type: in vitro ADME; details: predicted hepatic clearance, human microsomes
Kindly state CLHEP human for each of the entries shown.
Respond with a number, then the unit of measure.

Check out these entries, answers already filled in.
O=C(N[C@@H](Cn1ccnc1)c1ccc(Cl)cc1Cl)c1ccc(-c2nnc(-c3ccccc3)o2)cc1 [VNI, reference compound] | 5.95 mL/min/kg body weight
O=C(N[C@@H](Cn1ccnc1)c1ccc(Cl)cc1Cl)c1ccc(-c2nnc(-c3ccc(-c4ccccn4)cc3)o2)cc1 | 7.15 mL/min/kg body weight
O=C(N[C@@H](Cn1ccnc1)c1ccc(Cl)cc1Cl)c1ccc(-c2nnc(-c3ccc(C(F)(F)F)c(F)c3)o2)cc1 | 4.07 mL/min/kg body weight
O=C(N[C@@H](Cn1ccnc1)c1ccc(Cl)cc1Cl)c1ccc(-c2nnc(-c3cc(F)cc(-c4ccccn4)c3)o2)cc1 | 17.3 mL/min/kg body weight
O=C(N[C@@H](Cn1ccnc1)c1ccc(Cl)cc1Cl)c1ccc(-c2nnc(-c3cccc(Br)c3)o2)cc1 | 6.53 mL/min/kg body weight

Switching to the query record.
**Q:** Name the reported CLHEP human value associated with the compound `O=C(N[C@@H](Cn1ccnc1)c1ccc(Cl)cc1Cl)c1ccc(-c2nnc(-c3ccc(OCC(F)(F)F)cc3F)o2)cc1`
**A:** 9.24 mL/min/kg body weight

---

assay: Microsomal stability assay, mouse liver microsomes; assay type: in vitro ADME; conditions: predicted hepatic clearance, mouse microsomes
Would you kindly list CLHEP mouse for each of these compounds?

O=C(N[C@@H](Cn1ccnc1)c1ccc(Cl)cc1Cl)c1ccc(-c2nnc(-c3cc(F)cc(-c4ncncc4F)c3)o2)cc1 [Compound 15] | 48.3 mL/min/kg body weight
O=C(N[C@@H](Cn1ccnc1)c1ccc(Cl)cc1Cl)c1ccc(-c2nnc(-c3ccc(OCC(F)(F)F)cc3F)o2)cc1 [Compound 3] | 44 mL/min/kg body weight
O=C(N[C@@H](Cn1ccnc1)c1ccc(Cl)cc1Cl)c1ccc(-c2nnc(-c3ccccc3)o2)cc1 [VNI, reference compound] | 44 mL/min/kg body weight
O=C(N[C@@H](Cn1ccnc1)c1ccc(Cl)cc1Cl)c1ccc(-c2nnc(-c3cc(-c4ccccn4)ccc3F)o2)cc1 [Compound 13] | 65 mL/min/kg body weight
O=C(N[C@@H](Cn1ccnc1)c1ccc(Cl)cc1Cl)c1ccc(-c2nnc(-c3ccc(F)c(F)c3)o2)cc1 [Compound 1] | 34 mL/min/kg body weight

Please give CLHEP mouse for each item listed below.
1. O=C(N[C@@H](Cn1ccnc1)c1ccc(Cl)cc1Cl)c1ccc(-c2nnc(-c3cc(F)cc(-c4ccccn4)c3)o2)cc1 [Compound 11]
2. O=C(N[C@@H](Cn1ccnc1)c1ccc(Cl)cc1Cl)c1ccc(-c2nnc(-c3ccc(-c4ccccn4)cc3F)o2)cc1 [Compound 12]
3. O=C(N[C@@H](Cn1ccnc1)c1ccc(Cl)cc1Cl)c1ccc(-c2nnc(-c3ccc(C(F)(F)F)c(F)c3)o2)cc1 [Compound 2]
4. O=C(N[C@@H](Cn1ccnc1)c1ccc(Cl)cc1Cl)c1ccc(-c2nnc(-c3ccc(-c4ccccn4)cc3)o2)cc1 [Compound 10]
5. O=C(N[C@@H](Cn1ccnc1)c1ccc(Cl)cc1Cl)c1ccc(-c2nnc(-c3cccc(Br)c3)o2)cc1 [Compound 6]

**A:**
34 mL/min/kg body weight
26.0 mL/min/kg body weight
36 mL/min/kg body weight
46 mL/min/kg body weight
55 mL/min/kg body weight

---

assay: Microsomal stability assay, human liver microsomes; format: in vitro ADME; settings: predicted hepatic clearance, human microsomes
measure: CLHEP human
I'd appreciate it if you wrote the number followed by its unit.

Would you please look over these solved cases?
O=C(N[C@@H](Cn1ccnc1)c1ccc(Cl)cc1Cl)c1ccc(-c2nnc(-c3ccc(F)c(F)c3)o2)cc1 | 5.54 mL/min/kg body weight
O=C(N[C@@H](Cn1ccnc1)c1ccc(Cl)cc1Cl)c1ccc(-c2nnc(-c3ccc(-c4ccccn4)cc3F)o2)cc1 | 8.75 mL/min/kg body weight

Would you mind giving CLHEP human for every compound in the list below?
1. CS(=O)(=O)c1ccc(-c2nnc(-c3ccc(C(=O)N[C@@H](Cn4ccnc4)c4ccc(Cl)cc4Cl)cc3)o2)cc1Cl
2. O=C(N[C@@H](Cn1ccnc1)c1ccc(Cl)cc1Cl)c1ccc(-c2nnc(-c3cc(F)cc(OCC(F)(F)F)c3)o2)cc1

**A:**
6.45 mL/min/kg body weight
7.33 mL/min/kg body weight

---

assay: Microsomal stability assay, rat liver microsomes; format: in vitro ADME; settings: predicted hepatic clearance, rat microsomes
measure: CLHEP rat (mL/min/kg body weight)
Numbers only, in mL/min/kg body weight.

O=C(N[C@@H](Cn1ccnc1)c1ccc(Cl)cc1Cl)c1ccc(-c2nnc(-c3cc(-c4ccccn4)ccc3F)o2)cc1 [Compound 13] | 29.0

# return CLHEP rat for each item in the list
1. O=C(N[C@@H](Cn1ccnc1)c1ccc(Cl)cc1Cl)c1ccc(-c2nnc(-c3cc(F)cc(-c4ncncc4F)c3)o2)cc1 [Compound 15]
2. O=C(N[C@@H](Cn1ccnc1)c1ccc(Cl)cc1Cl)c1ccc(-c2nnc(-c3ccc(-c4ccccn4)cc3)o2)cc1 [Compound 10]

**A:**
19.5
40

For every item below, please supply its CLHEP rat.
1. O=C(N[C@@H](Cn1ccnc1)c1ccc(Cl)cc1Cl)c1ccc(-c2nnc(-c3cccc(Br)c3)o2)cc1 [Compound 6]
2. O=C(N[C@@H](Cn1ccnc1)c1ccc(Cl)cc1Cl)c1ccc(-c2nnc(-c3cc(F)cc(-c4ccccn4)c3)o2)cc1 [Compound 11]
3. O=C(N[C@@H](Cn1ccnc1)c1ccc(Cl)cc1Cl)c1ccc(-c2nnc(-c3ccc(C(F)(F)F)c(F)c3)o2)cc1 [Compound 2]

**A:**
[19, 24.0, 24]

**Q:** Item under review: O=C(N[C@@H](Cn1ccnc1)c1ccc(Cl)cc1Cl)c1ccc(-c2nnc(-c3ccc(F)c(F)c3)o2)cc1 [Compound 1] . Reported CLHEP rat?
**A:** 21
